Experiment: Toxicity liver stage against HepG2, at 10uM
Assay type: cell-based
Design: test concentration 10 uM, cell line HepG2-A16-CD81EGFP
Conditions: human, HepG2-A16-CD81EGFP cells; read-out: INHIBITION
Property Name: cytotoxicity at 10 µM (%)
Dear colleague, please return just the value in %, with no unit written.

Q: Give the measured cytotoxicity at 10 µM of COCC1CN(c2ncc(F)cn2)Cc2cnn(C)c21 (stereo unspecified) .
A: 4.02

Q: What about O=C(NCc1ccccn1)[C@]12COC[C@H]1CN(C1CCC1)C2 ?
A: -6.82

Q: Try the compound COc1ccc(C)cc1-c1csc(Cn2ccc(=O)[nH]c2=O)n1
A: 4.16

Q: Same question, CS(=O)(=O)CCSCc1cccc2cccnc12 this time
A: -6.64

Q: How about Cc1ccc(CNC(=O)C2=NOC3(CCCNC3)C2)cc1 (stereo unspecified) ?
A: 1.33

Q: Query CN1CC(=O)N(c2ccsc2)CC12CCN(Cc1cnn(C)c1)C2 (stereo unspecified) next
A: 0.0218

Q: Now the compound Cc1occc1C(=O)N1CCCN(Cc2ncc(Cl)n2C)CC1
A: -1.25

Q: Check COc1cc(C2(C(=O)N3CCN(CC(C)(C)O)CC3)CC2)ccc1C too.
A: -0.0264

Q: Moving on to the next compound: Cc1nn(C)cc1S(=O)(=O)NCC(C)Cn1cc(Cl)cn1 (stereo unspecified)
A: 0.197

Q: Check COCCNC(=O)[C@@H]1CC[C@@H]2[C@@H](CCN2Cc2cnn(C)c2)O1 too.
A: -12.2

Q: Field entry: Cc1ccccc1-n1cc(-c2ccnc(N3CCCC(CN)C3)n2)cn1 (stereo unspecified)
A: 1.34
